tested on: NCI-H522 lung; experiment: NCI-60 one-dose screen, 48 h; settings: 10 µM unless noted
This is part of a sample that, as a whole, favours compounds with a hit. Of some 83,000 tested, about 20% had one in any assay. Calls of active or inactive are those of the source. Rule for the calls: active = growth percent below 10; inactive = the rest.
Thanks in advance; please answer with one of these: active, inactive

Use the examples below as a reference point.
Compound | System tested | Label class
COc1ccc(C2=NN(C(=O)COc3ccc(Cl)cc3)C(O)(c3cc(F)c(Cl)cc3Cl)C2)cc1OC (configuration not stated) | NCI-H522 lung | active
C=C(C)[C@@H]1C/C=C(\COC(=O)[C@H](OC(C)=O)C(NC(=O)c2ccccc2)c2ccccc2)CC[C@H]2O[C@]2(C)CC/C=C(\C)CC1 (some centres not stated) | NCI-H522 lung | inactive
Cc1ccccc1C[P+](c1ccccc1)(c1ccccc1)c1ccccc1 | NCI-H522 lung | active
Cc1cc(NCCN(C(C)C)C(C)C)nc(/N=C(\N)Nc2ccc(Cl)c(C(F)(F)F)c2)n1 | NCI-H522 lung | active
Cc1cc(Nc2ccc(Cl)c(Cl)c2)nc(N)n1 | NCI-H522 lung | inactive
CC(=O)N[C@@H](CNC(=O)c1cc(NC(=O)c2cc(NC(=O)c3cc(NC(=O)c4nccn4C)cn3C)cn2C)cn1C)CC(=O)Nc1cn(C)c(C(=O)Nc2cc(C(=O)Nc3cc(C(=O)Nc4cc(C(=O)NCCCN(C)CCCNC(=O)c5cccc(C(=O)O)c5)n(C)c4)n(C)c3)n(C)c2)n1 | NCI-H522 lung | inactive

Pending compound:
Which outcome did this test record for the compound Cc1ccc(-c2cc(-c3nnc(SCC(=O)c4ccccc4)o3)c3ccccc3n2)cc1 ?
inactive

The origin of these recorded values is PubChem BioAssay (NCI).
